Biological target: Acetylcholinesterase (Homo sapiens, UniProt P22303)
Sequence (P22303 whole entry): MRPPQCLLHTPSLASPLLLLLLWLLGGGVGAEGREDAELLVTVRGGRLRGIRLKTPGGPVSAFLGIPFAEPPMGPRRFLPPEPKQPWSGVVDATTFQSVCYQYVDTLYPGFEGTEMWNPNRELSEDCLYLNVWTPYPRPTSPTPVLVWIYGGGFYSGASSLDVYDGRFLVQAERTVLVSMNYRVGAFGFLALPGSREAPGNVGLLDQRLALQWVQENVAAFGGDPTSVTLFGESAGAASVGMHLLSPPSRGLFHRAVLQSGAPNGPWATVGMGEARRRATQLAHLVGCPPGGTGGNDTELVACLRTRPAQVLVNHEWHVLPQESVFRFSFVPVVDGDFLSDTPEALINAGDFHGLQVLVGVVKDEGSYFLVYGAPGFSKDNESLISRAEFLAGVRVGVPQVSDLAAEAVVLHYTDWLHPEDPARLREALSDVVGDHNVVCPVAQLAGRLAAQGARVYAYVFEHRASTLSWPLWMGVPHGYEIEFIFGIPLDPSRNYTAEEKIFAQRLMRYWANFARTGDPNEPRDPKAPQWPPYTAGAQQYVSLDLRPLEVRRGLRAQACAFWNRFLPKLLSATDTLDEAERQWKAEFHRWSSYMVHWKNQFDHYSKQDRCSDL
Test: Inhibition of human AChE-induced beta amyloid peptide(1-40) aggregation at 100 uM by thioflavin T-based fluorometric assay
Type: functional
Recorded inhibition by entry
Reported metric: inhibition (%)

Mol: O=C(CCc1c[nH]c2ccccc12)NCCCCCCCNc1c2c(nc3cc(Cl)ccc13)CCCC2
Unit annotation: %
Reported: 96

Mol: O=C(CCc1c[nH]c2ccccc12)NCCCCCCNc1c2c(nc3cc(Cl)ccc13)CCCC2
Unit annotation: %
Reported: 98

Mol: O=C(Cc1c[nH]c2ccc(Br)cc12)NCCCCCCCNc1c2c(nc3cc(Cl)ccc13)CCCC2
Unit annotation: %
Reported: 82

Mol: O=C(Cc1c[nH]c2ccccc12)NCCCCCCCNc1c2c(nc3cc(Cl)ccc13)CCCC2
Unit annotation: %
Reported: 84

Mol: O=C(CCCc1c[nH]c2ccccc12)NCCCCCNc1c2c(nc3cc(Cl)ccc13)CCCC2
Unit annotation: %
Reported: 99

Hello, the source for this data is ChEMBL document CHEMBL1139473, in case you need it.
